# System Under Test: F508delCFTR (Homo sapiens, UniProt P13569, DEL508-508)
# Construct: expressed in transfected cells; host or cells: CFBE41o- human lung-derived epithelial cells (CFBE4lo-F508delCFTR-HRP), doxycycline-inducible
# Sequence (P13569 with tags, fused parts or gaps DEL508-508): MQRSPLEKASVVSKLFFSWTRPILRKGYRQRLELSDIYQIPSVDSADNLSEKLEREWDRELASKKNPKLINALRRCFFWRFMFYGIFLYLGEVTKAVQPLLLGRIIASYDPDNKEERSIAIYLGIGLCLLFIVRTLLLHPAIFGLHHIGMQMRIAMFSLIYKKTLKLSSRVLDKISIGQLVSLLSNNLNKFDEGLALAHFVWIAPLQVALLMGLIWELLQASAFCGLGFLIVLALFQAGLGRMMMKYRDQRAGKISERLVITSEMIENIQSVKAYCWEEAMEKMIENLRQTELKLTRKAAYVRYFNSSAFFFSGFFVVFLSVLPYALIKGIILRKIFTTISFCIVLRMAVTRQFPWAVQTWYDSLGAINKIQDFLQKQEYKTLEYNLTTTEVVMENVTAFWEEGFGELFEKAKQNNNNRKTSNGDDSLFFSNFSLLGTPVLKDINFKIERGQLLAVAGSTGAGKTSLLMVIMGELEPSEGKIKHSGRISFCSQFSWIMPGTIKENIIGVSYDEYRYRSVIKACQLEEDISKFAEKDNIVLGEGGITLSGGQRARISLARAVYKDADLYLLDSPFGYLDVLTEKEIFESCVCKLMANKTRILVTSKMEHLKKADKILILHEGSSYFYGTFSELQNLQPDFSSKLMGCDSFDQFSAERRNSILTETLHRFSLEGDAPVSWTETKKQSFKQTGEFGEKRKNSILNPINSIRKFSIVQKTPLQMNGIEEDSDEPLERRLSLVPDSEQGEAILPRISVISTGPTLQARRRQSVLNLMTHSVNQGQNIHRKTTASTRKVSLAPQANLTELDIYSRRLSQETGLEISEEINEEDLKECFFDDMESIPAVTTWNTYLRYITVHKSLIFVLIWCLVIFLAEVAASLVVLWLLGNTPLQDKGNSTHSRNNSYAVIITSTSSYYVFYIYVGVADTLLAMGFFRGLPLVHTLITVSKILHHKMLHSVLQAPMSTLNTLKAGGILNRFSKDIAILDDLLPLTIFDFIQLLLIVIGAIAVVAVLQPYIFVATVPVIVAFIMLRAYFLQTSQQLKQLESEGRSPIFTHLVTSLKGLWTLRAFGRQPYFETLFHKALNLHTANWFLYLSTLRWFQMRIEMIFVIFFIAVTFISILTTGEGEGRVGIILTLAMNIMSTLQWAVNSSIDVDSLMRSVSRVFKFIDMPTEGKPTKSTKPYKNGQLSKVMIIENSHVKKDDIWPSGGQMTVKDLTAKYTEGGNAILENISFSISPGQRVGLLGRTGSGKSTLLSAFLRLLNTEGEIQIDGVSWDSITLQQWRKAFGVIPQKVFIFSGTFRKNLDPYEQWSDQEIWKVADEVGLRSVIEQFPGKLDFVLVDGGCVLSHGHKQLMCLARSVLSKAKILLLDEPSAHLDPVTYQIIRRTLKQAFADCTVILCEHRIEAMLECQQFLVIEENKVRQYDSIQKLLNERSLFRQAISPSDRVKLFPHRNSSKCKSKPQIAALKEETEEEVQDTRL
# Assay: Cell Surface Expression-Horse Radish Peroxidase (CSE-HRP) Assay
# Format: cell-based
# Recorded Conditions: with co-corrector (2 μM of 3-[(2R,4R)-4-({[1-(2,2-difluoro-1,3-benzodioxol-5-yl)cyclopropyl]carbonyl}amino)-7-methoxy-3,4-dihydro-2H-chromen-2-yl]benzoic acid); read-out: EC50 (with co-corrector)
Readout Label: EC50

Request: Quick one: EC50 of COc1cc(C(F)(F)F)ccc1CN[C@H]1[C@H](C(C)(C)C)[C@@H](C(=O)O)N(C(=O)OC(C)C)[C@H]1c1cccnc1OC(C)C [Example 81] ?
Result: 1 to 10 µM

Request: # iterate: COc1ncc(C(F)(F)F)cc1CN[C@H]1[C@H](C(C)(C)C)[C@@H](C(=O)O)N(C(=O)C2CCCCC2)[C@H]1c1cccnc1N(C)C [Example I-120]
Result: 1 to 10 µM

Request: # iterate: COc1ccc(C(F)(F)F)cc1CN[C@H]1[C@H](C(C)(C)C)[C@@H](C(=O)O)N(C(=O)[C@H](C)c2ccccc2)[C@H]1c1cccnc1OC [II-541]
Result: 1 to 10 µM

Request: # iterate: COc1ccc(C(C)(C)C)cc1CN[C@H]1[C@H](C(C)(C)C)[C@@H](C(=O)O)N(C(=O)OC(C)C)[C@H]1c1ccccc1OC [Example 13]
Result: 1 to 10 µM

Request: # iterate: COc1ncc(C(F)(F)F)cc1CN[C@@H]1[C@@H](C(C)(C)C)[C@H](C(=O)O)N(C(=O)[C@@H]2CCCCO2)[C@@H]1c1ccccc1 [III-165]
Result: 1 to 10 µM

Request: # iterate: COc1ncc(C(F)(F)F)cc1CN[C@H]1[C@H](C23CC(C2)C3)[C@@H](C(=O)O)N(C(=O)OC(C)C)[C@H]1c1ccccc1F [II-544]
Result: 1 to 10 µM

Cited source: patent US20180099931A1
